Tested on: MCF7 breast
ASSAY: NCI tumour cell line growth inhibition, 48 h
Listing of recorded TGI by entry.
ENDPOINT NAME: TGI

>  <COMPOUND>
CN(C)Nc1cc(=O)[nH]c(=O)[nH]1

>  <OBSERVED MEASUREMENT>
> 100 µM

$$$$
>  <COMPOUND>
OC1(c2cccs2)c2cccc(Cl)c2C(O)(c2cccs2)c2c(Cl)cccc21 (stereo unspecified)

>  <OBSERVED MEASUREMENT>
> 100 µM

$$$$
>  <COMPOUND>
C[C@]12C=CC(=O)C=C1CC[C@@H]1[C@@H]2CC[C@]2(C)OC(=O)CC[C@@H]12

>  <OBSERVED MEASUREMENT>
> 500 µM

$$$$
>  <COMPOUND>
N#CC(NC12CC3CC(CC(C3)C1)C2)c1ccc2c(c1)OCO2 (stereo unspecified)

>  <OBSERVED MEASUREMENT>
> 100 µM

$$$$
>  <COMPOUND>
CCOC(=O)c1cnc2oc3ccc(O)cc3c2c1C

>  <OBSERVED MEASUREMENT>
> 100 µM

$$$$
>  <COMPOUND>
COc1ccc2c(c1)c(=O)oc1cc(OC/C(C)=N\O)ccc12

>  <OBSERVED MEASUREMENT>
> 100 µM

$$$$

Origin of measurements: PubChem BioAssay (NCI)
